system: P. falciparum stage V gametocytes; set-up: BacTiter-Glo ATP luminescence viability of purified stage V gametocytes in 384-well plates, per cent inhibition versus DMSO; settings: 48 h, 5 µM; inhibitor
About 3,200 (25%) of roughly 13,000 compounds showed an effect of 50% or more. The list shows a part of the results.
MEASURED QUANTITY: % Inhibition (%)
Give bare numbers, in %.

Task: Give its % Inhibition value. Item: CC(C)CNC(=S)N1CCCN(c2nc3ccc(Cl)cc3s2)CC1 [TCMDC-139465]
Output: 24.85

Hi there! I need % Inhibition for each item below, if you can.
1. CN(C)CC(=O)Nc1ccc(Nc2nccc(NCC(O)c3ccccc3)n2)cc1 (centres unmarked) [TCMDC-136466]
2. Cc1nc(-c2ccc(-c3ccc(NC(=O)Nc4ccc(I)c(OCCN(C)C)c4)cc3)c(C)c2)no1 [TCMDC-139107]
3. CN(C)c1ccc(C=Cc2nc(=O)c3ccccc3o2)cc1 [TCMDC-123870]
4. CCCC1N=C(N)N=C(N)N1c1cccc(C(F)(F)F)c1 (centres unmarked) [TCMDC-131298]
5. Cc1cc(N[C@@H](Cc2ccccc2)C(=O)NCc2cccs2)nc(NCCOc2ccccc2)n1 [TCMDC-134758]
6. Cc1cc(N[C@@H](CC(C)C)C(=O)NCCOc2ccccc2)nc(NCCOc2ccccc2)n1 [TCMDC-134761]
7. OC(CNc1ccnc(Nc2cccc(OCCCN3CCOCC3)c2)n1)c1ccccc1 (centres unmarked) [TCMDC-136465]
8. Cc1ccc(Nc2nccc(NCC(O)c3cccc(C)c3)n2)cc1 (centres unmarked) [TCMDC-136569]

Output:
1. -80.24
2. -54.47
3. 44.95
4. -25.37
5. 28.84
6. 40.02
7. 23.11
8. -32.98

Provide the reported % Inhibition of each entry below, same order.
1. CN1CCC(Oc2ccc(Nc3nccc(NCC(O)c4ccccc4)n3)cc2Cl)CC1 (centres unmarked) [TCMDC-136471]
2. COc1ccc(-c2cccc(NC(=O)c3ccc(Cl)cc3)c2)cc1CN1CCCC1 [TCMDC-132604]
3. COc1ccc(-c2cccc(NC(=O)c3cccc(C#N)c3)c2)cc1CN1CCNCC1 [TCMDC-132620]
4. COc1ccc(C(=O)NC(c2ccc(Cl)cc2Cl)c2cc(Cl)c3cccnc3c2O)cc1 (centres unmarked) [TCMDC-125549]
5. CN(C)CC(=O)Nc1cccc(Nc2nccc(NCC(O)c3ccccc3)n2)c1 (centres unmarked) [TCMDC-136472]

Output:
[60.18, 46.68, 19.71, 15.16, 19.31]

State recorded % Inhibition for all listed molecules.
1. Cc1nc(-c2cccc(Nc3nccc(NCC(O)c4ccccc4)n3)c2)cs1 (centres unmarked) [TCMDC-136565]
2. CC[C@]1(C)C[C@@H](NC(=O)NC(=O)c2ccc(OC)cc2)[C@]2(C)[C@H](C)CC[C@]3(CCC(=O)[C@H]32)[C@@H](C)[C@@H]1OC(=O)NC(=O)c1ccc(OC)cc1 [TCMDC-139025]
3. CN1CCN(c2cccc(Nc3nccc(NCC(O)c4ccccc4)n3)c2)CC1 (centres unmarked) [TCMDC-136468]

Output:
1: 4.289; 2: 34.49; 3: 11.64

###

tested on: P. falciparum stage V gametocytes; design: BacTiter-Glo ATP luminescence viability of purified stage V gametocytes in 384-well plates, per cent inhibition versus DMSO; settings: 48 h, 5 µM; inhibitor
The whole screen tested about 13,000 compounds, of which about 3,200 (25%) showed an effect of 50% or more. The list shows a part of the results.
Each entry gets n if its % Inhibition stays under 20%, and y if its % Inhibition is 20% or above.

As a guide, the following entries are already answered.
Task: Kindly determine if % Inhibition recorded for O=c1cc(NCCC2CC=CCN2Cc2ccc(Cl)c(Cl)c2)[nH]c2ccccc12 (stereo not shown) is above or exactly 20%.
Output: n

Task: Is the recorded value of % Inhibition equal to or greater than 20% for this compound? Cc1ccc(-c2cnc3[nH]cc(-c4ccc(C(=O)O)c(C)c4)c3c2)cc1C.O=C(O)C(F)(F)F
Output: n

Task: # check: % Inhibition of CN1CCCN(c2ccnc3cc4c(cc23)N(C(=O)c2ccccc2Cl)CC4)CC1 is greater than or equal to 20%
Output: y

Task: Could you please find out whether O=[N+]([O-])c1cccc(NC(=S)N2CCCN(Cc3ccc(C(F)(F)F)cc3)CC2)c1 has % Inhibition that meets 20% or exceeds it?
Output: y

Task: # check: % Inhibition of Nc1nc(N)c2c(ccc3nn(Cc4cccnc4)cc32)n1 is greater than or equal to 20%
Output: n

Task: Please tell me: is the compound CN1CCN(c2ccc(Nc3c(C(N)=O)cnc4cc(-c5ccoc5)ccc34)cc2)CC1.Cl at or over 20% in terms of % Inhibition?
Output: n

---
Task: Please indicate if the recorded % Inhibition for Cc1cc(Nc2c(C(N)=O)cnc3cc(-c4ccoc4)ccc23)ccc1N1CCN(C)CC1.Cl meets or exceeds 20%.
Output: n

Task: Dear colleague, could you confirm whether O=C(c1cc2cccc([N+](=O)[O-])c2[nH]1)N1CCC(CCN2CCC(c3c[nH]c4ccccc34)CC2)CC1 has % Inhibition at or above 20%?
Output: y

Task: Does the compound O=C(Nc1cccc(CN2CCCN(Cc3ccc(O)cc3)CC2)c1)c1cccc(F)c1 have recorded % Inhibition that is 20% or more?
Output: n

Task: Reported % Inhibition at or above 20%? CN1CCN(c2ccnc3cc4c(cc23)N(C(=O)Nc2ccc3c(c2)CCCC3=O)CC4)CC1
Output: n

Task: Please indicate if the recorded % Inhibition for O=C(Nc1ccc(F)c(Cl)c1)NC1CCN(c2ccnc3cc(Cl)ccc23)C1 (stereo not shown) meets or exceeds 20%.
Output: n

Task: Please indicate if the recorded % Inhibition for Cc1cc(-c2ccnc(Nc3cccc(C#N)c3)n2)cc(C)c1O meets or exceeds 20%.
Output: n

Task: Identify whether the reported % Inhibition of the following compound is 20% or greater: COc1cc(-c2nc3ccc(N4CCN(C)CC4)cc3[nH]2)cc(OC)c1OC
Output: n

Task: // inclusive: % Inhibition at least 20%? input: O=C(NC1CCC(CN2CCC(c3c[nH]c4ccccc34)CC2)CC1)c1ccc(-c2ccccc2[N+](=O)[O-])o1 (stereo not shown)
Output: n

Task: % Inhibition >= 20% for Cc1ccc(S(=O)(=O)N2CCN(C(=O)c3cc(-c4ccccc4)n[nH]3)CC2)cc1 ?
Output: n

Task: Confirm if % Inhibition reported for the compound C=C[C@]1(C)C[C@@H](OC(=O)NC(=O)C2CCN(C(=O)CSc3ccccc3)CC2)[C@]2(C)[C@H](C)CC[C@]3(CCC(=O)[C@H]32)[C@@H](C)[C@@H]1O is 20% or above.
Output: n

Task: Tell me whether % Inhibition is at least 20% here: Cc1cc(C)c(S(=O)(=O)N2CCCCC(c3cccc(C(F)(F)F)c3)=N2)c(C)c1
Output: n
